The measurements presented in this section are drawn from patent US7799775B2.

Molecular target: human 5-HT3 receptor (Homo sapiens)
Construct: purchased BIOLINKS K.K; host or cells: HEK-293 cells (membrane preparation)
Assay: Measurement of affinity to human 5-HT3 receptor (in vitro), [3H]BRL-43694 binding
Settings: test compound 100 nmols/L; [3H]BRL-43694 0.5 nmols/L; HEK-293 cell membrane expressing human 5-HT3 receptor; read-out: Percent Inhibition (%) on Each Receptor's Binding at 10^−7M, 5-HT3
Give measured inhibition at 0.1 µM for each item. Keep answers brief.
One number for each entry, in %.

Observe how each entry below is paired with its result.
compound	experimentalReadout	valueObserved
O=c1[nH]c(SCCCN2CCN(c3ccc4ccccc4n3)CC2)nc2ccsc12 [Example 2-12]	inhibition at 0.1 µM	34.6
CC1CCCc2c1nc(CCCCN1CCN(c3ccc4ccccc4n3)CC1)n(N)c2=O (stereo not drawn) [Example 4-36]	inhibition at 0.1 µM	87.7

Look up inhibition at 0.1 µM for the entries below, preserving their order.
1. COc1ccc2ccnc(N3CCN(C)CC3)c2c1 [Production Example 32]
2. CCn1c(CCCCN2CCN(c3ccc4ccccc4n3)CC2)nc2ccccc2c1=O [Example 7-21]
3. Cn1c(NCCCN2CCN(c3ccc4ccccc4n3)CC2)nc2c(c1=O)CCCC2 [Example 7-29]
4. CN1CCN(c2nccc3ccc(N(C)C)cc23)CC1 [Production Example 89]
5. CC1CCc2c(sc3nc(SCCCN4CCN(c5ccc6ccccc6n5)CC4)n(N)c(=O)c23)C1 (stereo not drawn) [Example 1-31]

**A:**
1: 94.4; 2: 95; 3: 93.6; 4: 83.5; 5: 92.4

----------
Biological target: human 5-HT1A receptor (Homo sapiens, UniProt P08908)
Construct: purchased Packard Bioscience; host or cells: CHO cells (membrane preparation)
Test: Affinity measurement of the compounds to human 5-HT1A receptor (in vitro), [3H]8-OH-DPAT binding
Settings: test compound 100 nmols/L; [3H]8-OH-DPAT 0.25 nmols/L; CHO cell membrane expressing human 5-HT1A receptor; read-out: Percent Inhibition (%) on Each Receptor's Binding at 10^−7M, 5-HT1A
Give measured inhibition at 0.1 µM for each item. Keep answers brief.
One number for each entry, in %.

compound	systemName	valueObserved
CC(CCCc1nc2c(c(=O)n1C)CCCC2)N1CCN(c2ccc3ccccc3n2)CC1 (centres unmarked)	human 5-HT1A receptor (Homo sapiens, UniProt P08908)	77.8
c1ccc(CO[C@@H]2C[C@H]3CN(c4nccc5sccc45)CCN3C2)cc1	human 5-HT1A receptor (Homo sapiens, UniProt P08908)	57.7
c1cc2ccsc2c(N2CCN3CCCCC3C2)n1 (centres unmarked)	human 5-HT1A receptor (Homo sapiens, UniProt P08908)	81

Look up inhibition at 0.1 µM for the entries below, preserving their order.
1. c1cc2ccsc2c(N2CCN3CCC[C@@H]3C2)n1
2. Nn1c(CCCCN2CCN(c3ccc4ccccc4n3)CC2)nc2ccccc2c1=O
3. CN1CCN(c2nccc3ccc(N(C)C)cc23)CC1
4. Cn1c(CCCCN2CCN(c3ccc4ccccc4n3)CC2)nc2ccc(Br)cc2c1=O
5. COc1ccc2c(C)cnc(N3CCNCC3)c2c1

**A:**
90.6
98.2
92.1
85.2
23.9

----------
Target: human 5-HT1A receptor (Homo sapiens)
Construct: purchased Packard Bioscience; host or cells: CHO cells (membrane preparation)
Test: Affinity measurement of the compounds to human 5-HT1A receptor (in vitro), [3H]8-OH-DPAT binding
Conditions: test compound 100 nmols/L; [3H]8-OH-DPAT 0.25 nmols/L; CHO cell membrane expressing human 5-HT1A receptor; read-out: Percent Inhibition (%) on Each Receptor's Binding at 10^−7M, 5-HT1A
Give measured inhibition at 0.1 µM for each item. Keep answers brief.

Cc1cc(N2CCN(CCCCc3nc4c(c(=O)n3C)CCCC4)CC2)nc2ccccc12 97.4%
Cn1c(CCCCN2CCN(c3nc4ccccc4s3)CC2)nc2c(c1=O)CCCC2 91%
COc1ccc2ccnc(N3CCN(C)CC3)c2c1 91.7%
COc1ccc2ccnc(N3CCN4CCC[C@@H]4C3)c2c1 98.9%
Brc1ccc2ccnc(N3CCNCC3)c2c1 92.8%
O=c1c2c(nc(CCCCN3CCN(c4ccc5ccccc5n4)CC3)n1Cc1ccccc1)CCCC2 85%

Look up inhibition at 0.1 µM for the entries below, preserving their order.
1. COc1cc2nc(CCCCN3CCN(c4ccc5ccccc5n4)CC3)n(C)c(=O)c2cc1OC
2. Nn1c(CCCCN2CCN(c3ccc4ccccc4n3)CC2)nc2c(c1=O)CCCC2

**A:**
["82.4%", "101%"]

----------
Target: human 5-HT3 receptor (Homo sapiens, UniProt P46098)
Construct: purchased BIOLINKS K.K; host or cells: HEK-293 cells (membrane preparation)
Sequence (P46098 24-478): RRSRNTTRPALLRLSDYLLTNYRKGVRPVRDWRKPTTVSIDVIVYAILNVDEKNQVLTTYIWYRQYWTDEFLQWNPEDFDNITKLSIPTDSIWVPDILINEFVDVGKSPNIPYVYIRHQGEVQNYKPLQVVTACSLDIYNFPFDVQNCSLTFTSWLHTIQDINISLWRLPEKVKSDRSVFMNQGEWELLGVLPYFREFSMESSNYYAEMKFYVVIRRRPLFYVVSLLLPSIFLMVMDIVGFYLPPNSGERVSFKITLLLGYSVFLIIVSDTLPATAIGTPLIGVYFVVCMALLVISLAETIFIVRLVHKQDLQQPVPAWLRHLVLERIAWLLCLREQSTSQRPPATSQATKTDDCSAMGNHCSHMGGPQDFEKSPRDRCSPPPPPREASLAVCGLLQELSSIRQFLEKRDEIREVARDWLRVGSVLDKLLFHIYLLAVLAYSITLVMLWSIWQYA
Test: Measurement of affinity to human 5-HT3 receptor (in vitro), [3H]BRL-43694 binding
Conditions: test compound 100 nmols/L; [3H]BRL-43694 0.5 nmols/L; HEK-293 cell membrane expressing human 5-HT3 receptor; read-out: Percent Inhibition (%) on Each Receptor's Binding at 10^−7M, 5-HT3
# binarize inhibition at 0.1 µM: threshold 90% inclusive, high side y, low side n

Before answering, review these 3 worked examples.
compound	group
c1cc2ccoc2c(N2CCN3CCC[C@@H]3C2)n1	y
c1cc2ccsc2c(N2CCN3CCCCC3C2)n1 (centres unmarked)	y
Nn1c(CCCCN2CCN(c3ccc4ccccc4n3)CC2)nc2ccsc2c1=O	n

# ---- query compound ----
**Q:** Determine whether measured inhibition at 0.1 µM meets or exceeds 90% for CN1CCN(c2nccc3sccc23)CC1
**A:** y

----------
Biological target: human 5-HT3 receptor (Homo sapiens, UniProt P46098)
Construct: purchased BIOLINKS K.K; host or cells: HEK-293 cells (membrane preparation)
Test: Measurement of affinity to human 5-HT3 receptor (in vitro), [3H]BRL-43694 binding
Details: test compound 100 nmols/L; [3H]BRL-43694 0.5 nmols/L; HEK-293 cell membrane expressing human 5-HT3 receptor; read-out: Percent Inhibition (%) on Each Receptor's Binding at 10^−7M, 5-HT3
experimentalReadout: inhibition at 0.1 µM (%)
Give bare numbers, in %.

molecule	unitLabel	inhibition at 0.1 µM
Clc1ccc2ccnc(N3CCN4CCC[C@H]4C3)c2c1	%	99.3

Look up inhibition at 0.1 µM for the entries below, preserving their order.
1. COc1ccc2ccnc(N3CCN(Cc4ccc5c(c4)OCO5)CC3)c2c1
2. Cn1c(CCCCN2CCN(c3ccc4ccccc4n3)CC2)nc2c(cnn2C)c1=O

**A:**
42.2
7.4

----------
Give measured Number of excrements for each item. Keep answers brief.
System: rats under restraint stress
Test: Measurement of defecation acceleration in rats under restraint stress
Format: in vivo, rat
Details: 1 mg/kg intraperitoneal administration; 1 hour restraint stress; group average (Normal 1.7, Control 6.8)
One number for each entry.

compound	valueObserved
Cc1nccn1C[C@H]1CCc2c(c3cccc4c3n2CCC4)C1=O [cilansetron, reference compound]	4.0
Cl.O=C1CC2(CCCC2)CC(=O)N1CCCCN1CCN(c2ncccn2)CC1 [buspirone, reference compound]	4.3

Look up Number of excrements for the entries below, preserving their order.
1. O=C(O)CC(O)(CC(=O)O)C(=O)O.O=C1[C@@H]2[C@H]3CC[C@H](C3)[C@@H]2C(=O)N1CCCCN1CCN(c2ncccn2)CC1 [tandospirone, reference compound]
2. Cc1[nH]cnc1CN1CCc2c(c3ccccc3n2C)C1=O.Cl [alosetron, reference compound]
3. Nn1c(CCCCN2CCN(c3ccc4ccccc4n3)CC2)nc2c(c1=O)CCCC2

**A:**
[5.7, 4.1, 4.3]

----------
Molecular target: 5-HT3 receptor (Rattus norvegicus)
Construct: from tissue; host or cells: whole animal (SD male rats), serotonin-induced bradycardia
Sequence (P35563 24-483): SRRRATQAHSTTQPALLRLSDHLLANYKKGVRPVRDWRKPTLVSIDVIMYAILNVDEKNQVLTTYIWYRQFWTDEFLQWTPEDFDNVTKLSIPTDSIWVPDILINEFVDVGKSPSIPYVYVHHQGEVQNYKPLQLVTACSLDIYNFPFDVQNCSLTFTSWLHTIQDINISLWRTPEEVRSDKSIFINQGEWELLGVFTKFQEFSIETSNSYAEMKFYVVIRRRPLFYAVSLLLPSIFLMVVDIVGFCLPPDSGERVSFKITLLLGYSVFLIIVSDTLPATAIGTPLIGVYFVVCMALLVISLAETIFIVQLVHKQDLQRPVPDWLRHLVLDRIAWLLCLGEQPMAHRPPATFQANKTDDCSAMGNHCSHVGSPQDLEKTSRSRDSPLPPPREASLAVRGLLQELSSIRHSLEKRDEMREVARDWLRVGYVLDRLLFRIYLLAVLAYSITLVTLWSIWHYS
Test: Measurement of 5-HT3 receptor antagonistic action on rats (in vivo): inhibition of serotonin-induced bradycardia (BJ reflex)
Conditions: anesthetized SD male rats, dose 1.0 mg/kg intravenous, serotonin 300 μg/kg 10 minutes later
Where a name gives a salt, the structure may show the parent alone.
Give measured BC Inhibition (%) for each item. Keep answers brief.
One number for each entry, in %.

Look up BC Inhibition (%) for the entries below, preserving their order.
1. Clc1ccc2ccnc(N3CCNCC3)c2c1 [Production Example 49, 7-chloro-1-piperazin-1-ylisoquinoline]
2. Nn1c(CCCCN2CCN(c3ccc4ccccc4n3)CC2)nc2ccccc2c1=O [Example 4-3]
3. Oc1ccc2ccnc(N3CCNCC3)c2c1 [Production Example 95, hydrochloride]
4. Cc1ccc2ccnc(N3CCN(C)CC3)c2c1 [Production Example 47]

**A:**
[96.8, 90.1, 96.0, 89.9]

----------
Biological target: human 5-HT1A receptor (Homo sapiens, UniProt P08908)
Construct: purchased Packard Bioscience; host or cells: CHO cells (membrane preparation)
Sequence (P08908 1-422): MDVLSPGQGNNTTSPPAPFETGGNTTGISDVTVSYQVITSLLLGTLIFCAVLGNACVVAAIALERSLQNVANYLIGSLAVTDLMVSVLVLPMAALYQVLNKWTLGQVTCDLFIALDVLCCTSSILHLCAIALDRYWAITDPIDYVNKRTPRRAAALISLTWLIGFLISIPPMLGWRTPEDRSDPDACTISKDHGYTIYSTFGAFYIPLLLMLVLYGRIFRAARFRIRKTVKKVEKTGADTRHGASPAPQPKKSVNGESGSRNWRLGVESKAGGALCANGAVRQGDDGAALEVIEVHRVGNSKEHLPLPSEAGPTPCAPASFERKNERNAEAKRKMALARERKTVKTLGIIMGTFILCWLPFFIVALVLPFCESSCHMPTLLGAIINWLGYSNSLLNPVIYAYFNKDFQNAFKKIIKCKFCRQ
Assay: Affinity measurement of the compounds to human 5-HT1A receptor (in vitro), [3H]8-OH-DPAT binding
Conditions: test compound 100 nmols/L; [3H]8-OH-DPAT 0.25 nmols/L; CHO cell membrane expressing human 5-HT1A receptor; read-out: Percent Inhibition (%) on Each Receptor's Binding at 10^−7M, 5-HT1A
experimentalReadout: inhibition at 0.1 µM (%)
Give bare numbers, in %.

Observe how each entry below is paired with its result.
Nn1c(CCCCN2CCN(c3ccc4ccccc4n3)CC2)nc2sccc2c1=O 97
Cn1c(CCCN2CCN(c3ccc4ccccc4n3)CC2)nc2c(c1=O)CCCC2 53
CCOC(=O)c1sc2nc(SCCCN3CCN(c4ccc5ccccc5n4)CC3)n(N)c(=O)c2c1C 99.8
Cc1cc(N2CCN(CCCCc3nc4ccccc4c(=O)n3N)CC2)nc2ccccc12 98.7
Cn1c(SCCCN2CCN(c3ccc4ccccc4n3)CC2)nc2c(c1=O)CCCC2 87
O[C@@H]1C[C@H]2CN(c3nccc4occc34)CCN2C1 16.7
CC(C)n1c(CCCCN2CCN(c3ccc4ccccc4n3)CC2)nc2ccccc2c1=O 62.1

Lab note: O=c1c2ccccc2nc(CCCCN2CCN(c3ccc4ccccc4n3)CC2)n1Cc1ccccc1 gave inhibition at 0.1 µM of 72.2
